Test: binders from COS7 lysate, DM2A8 probe, primary screen, torsin A project, cell lysate, small-molecule microarray, fluorescence 635/667 (AID 1065)
Settings: higher = more signal, COS7 lysate expressing mutant human TOR1A

[
  {
    "Compound": "C=CCC(OC(C)=O)[C@@H]1[C@@H](N(Cc2cc3ccccc3o2)C(=O)c2ccc(-c3ccccc3)cc2)c2cc(OCCCO)ccc2N1C(=O)c1ccc(-c2ccccc2)cc1 (stereo partly drawn)",
    "composite z-score": -0.352
  },
  {
    "Compound": "O=C(O)[C@H]1C[C@H]2C(=O)N[C@@H](Cc3ccccc3)C(=O)N2[C@H]1c1ccc(O)cc1",
    "composite z-score": 0.419
  },
  {
    "Compound": "COCCOC(=O)N1C(=O)[C@@]2(c3cc(C#CC4(O)CCCCCC4)ccc31)[C@H](C(=O)NC[C@H](O)c1ccccc1)[C@H]1C(=O)O[C@H](c3ccccc3)[C@H](c3ccccc3)N1[C@@H]2c1ccccc1OCCO",
    "composite z-score": 0.621
  }
]

###

Test system: Inhibin beta A chain (activin A)
Test: INHBA (activin A) binders on microarrays, primary screen, biochemical, small-molecule microarray, 635 nm fluorescence scan (AID 1107);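 note: mouse activin A protein probed at 4.33 µg/mL on printed slides; score merges bound-protein fluorescence near 667 nm with spot signal-to-noise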
Settings: small-molecule microarray binding, higher = more signal
Lab note: anything with composite z-score at or over 0.9 counts as criterion met; the rest go in criterion not met.

[
  {
    "Molecule": "COC(=O)C1=CC(c2ccc(CO)cc2)=CC(c2cccs2)N(C)C=C1C(=O)OC (stereo not drawn)",
    "Group label": "criterion met"
  },
  {
    "Molecule": "CCOC(=O)C[C@H]1[C@H](OC(=O)c2ccc(-c3ccccc3)cc2)[C@@H](NC(=O)C2CCCCC2)c2cc(OCCCO)ccc2N1C(=O)c1ccc2ccccc2n1",
    "Group label": "criterion not met"
  },
  {
    "Molecule": "CC(C)(C)OC(=O)CC[C@]1(C(=O)NCc2ccccc2)N=C(c2ccc(OCCCO)cc2)O[C@H]1c1ccccc1N=[N+]=[N-]",
    "Group label": "criterion met"
  },
  {
    "Molecule": "NC(=O)N1C(=O)C2C(C1=O)C1C=C(c3ccc(CO)cc3)C2C(C2CC2)N1Cc1cc2c(cc1Br)OCO2 (stereo not drawn)",
    "Group label": "criterion met"
  },
  {
    "Molecule": "COCCOC(=O)N1C(=O)[C@@]2(c3cc(C#CC4(O)CCCCCC4)ccc31)[C@H](c1ccc(O)cc1)N1[C@H](c3ccccc3)[C@H](c3ccccc3)OC(=O)[C@H]1[C@@H]2C(N)=O",
    "Group label": "criterion not met"
  },
  {
    "Molecule": "C=C(C1=CCN(S(=O)(=O)c2ccc(C)cc2)C1)[C@@H](OC(C)=O)[C@@H]1CCCN1S(=O)(=O)c1ccccc1[N+](=O)[O-]",
    "Group label": "criterion met"
  },
  {
    "Molecule": "CC1CC/C=C\\[C@H]2OC34C=CCN(C(C)C)C(=O)[C@H]3N(C(CO)C(C)C)C(=O)[C@@H]4C2C(=O)O1 (stereo partly drawn)",
    "Group label": "criterion not met"
  }
]
